Could you please report measured melting point for the items listed next?

Take a look at these entries with their results.
COc1ccccc1NC(=O)Nc1cccc(-n2c(=O)c(CCC(=O)O)nc3cccnc32)c1    143 to 153 °C (dec.)
COc1ccccc1NC(=O)Nc1cccc(-n2c(=O)c(Cc3cccnc3)nc3cccnc32)c1    163 to 169 °C
COC(=O)c1cccn1-c1cccc(-n2c(=O)c(Cc3ccccc3)nc3cccnc32)c1    190 to 191 °C
O=C(/C=C(\C(=O)O)c1ccccc1)Nc1cccc(-c2cccc(-n3c(=O)c(Cc4cccnc4)nc4cccnc43)c2)c1    189 to 198 °C (dec.)
O=c1c(Cc2cccnc2)nc2cccnc2n1-c1cccc(-c2cncc3ccccc23)c1    157 to 163 °C

Batch of 2 compounds: report melting point for each.
1. COC(=O)c1ccc2c(ccn2-c2cccc(-n3c(=O)c(Cc4cccnc4)nc4cccnc43)c2)c1
2. COc1ccccc1NC(=O)Nc1cccc(-n2c(=O)c(Cc3ccccc3[N+](=O)[O-])nc3cccnc32)c1

output:
193 to 197 °C
200 to 208 °C (dec.)

Okay, here is my list. What is melting point for each of these?
1. CC(=O)c1cn(-c2cccc(-n3c(=O)c(Cc4cccnc4)nc4cccnc43)c2)c2ccccc12
2. CCOC(=O)CCc1nc2cccnc2n(-c2cccc(NC(=O)Nc3ccccc3OC)c2)c1=O

output:
["153 to 156 °C", "175 °C"]

Record melting point for all entries; do not skip any.
1. CCNC(=O)Nc1cccc(-c2cccc(-n3c(=O)c(Cc4cccnc4)nc4cccnc43)c2)c1
2. COc1ccccc1NC(=O)Nc1cccc(-n2c(=O)c(CCC(=O)ON3C(=O)CCC3=O)nc3cccnc32)c1

output:
1: 257 to 258 °C; 2: 235 to 237 °C

====

Assign melting point to each entry below.

Use these answered entries as a reference point.
COC(=O)c1cccc(-c2cccc(-n3c(=O)c(Cc4cccnc4)nc4cccnc43)c2)c1    179 to 181 °C
O=c1c(Cc2ccccc2)nc2cccnc2n1-c1cccc(NS(=O)(=O)c2ccccc2)c1    199 to 211 °C
O=C(Nc1cccc(-n2c(=O)c(Cc3cccnc3)nc3cccnc32)c1)Nc1ccccc1[N+](=O)[O-]    188 to 189 °C
CC(=O)c1cn(-c2cccc(-n3c(=O)c(Cc4ccccc4)nc4cccnc43)c2)c2ccccc12    157 to 159 °C
COC(=O)[C@@H]1CCCN1C(=O)CCc1nc2cccnc2n(-c2cccc(NC(=O)Nc3ccccc3OC)c2)c1=O    209 to 212 °C

Quick one: give me melting point for each item below, same order please.
1. Nc1cccc(-c2cccc(-n3c(=O)c(Cc4cccnc4)nc4cccnc43)c2)c1
2. COc1ccccc1NC(=O)Nc1cccc(-n2c(=O)c(CCC(=O)N(C)C)nc3cccnc32)c1

output:
202 to 204 °C
242 to 245 °C

====

Record form. Attribute: melting point. Fill in for each entry.

Take a look at these entries with their results.
O=c1c(Cc2ccc(O)cc2)nc2cccnc2n1-c1cccc(-n2cccc2)c1    263 °C
CC(=O)Nc1cccc(-c2cccc(-n3c(=O)c(Cc4cccnc4)nc4cccnc43)c2)c1    188 to 194 °C
O=c1c(Cc2cccnc2)nc2cccnc2n1-c1cccc(-n2ccc3ccccc32)c1    166 to 168 °C

Turning now to a further compound:
input: Find the recorded melting point belonging to COC(=O)CCc1nc2cccnc2n(-c2cccc(NC(=O)Nc3ccccc3OC)c2)c1=O and report it.
output: 194 to 196 °C

====

Provide the recorded melting point for the entries that follow.

Answered cases to consult:
O=C(Nc1cccc(-c2cccc(-n3c(=O)c(Cc4cccnc4)nc4cccnc43)c2)c1)c1cnc2ccccc2n1 [Example 76(4)]    206 to 209 °C
O=C(/C=C/c1ccncc1)Nc1cccc(-c2cccc(-n3c(=O)c(Cc4cccnc4)nc4cccnc43)c2)c1 [Example 76(6)]    185 to 191 °C
O=C(Nc1ccccc1)Nc1cccc(-n2c(=O)c(Cc3ccccc3)nc3ccc(Sc4ccccc4)nc32)c1 [Example 68(14)]    183 to 185 °C

Now examine the next entry.
input: Recorded melting point for CNC(=O)Nc1cccc(-c2cccc(-n3c(=O)c(Cc4cccnc4)nc4cccnc43)c2)c1 [Example 72] , please?
output: 248 to 252 °C

====

Exercise: for every item that follows, state its recorded melting point.

Recorded melting point, per entry:
O=c1c(Cc2cccnc2)nc2cccnc2n1-c1cccc(-n2cccc2)c1    128 to 130 °C
CC(=O)Nc1ccc(F)c(-n2c(=O)c(Cc3cccnc3)nc3cccnc32)c1    212 to 214 °C
COC(=O)/C=C/c1cccc(-n2c(=O)c(Cc3cccnc3)nc3cccnc32)c1    180 to 181 °C
COc1ccc2cc(-c3cccc(-n4c(=O)c(Cc5cccnc5)nc5cccnc54)c3)ccc2c1    228 to 231 °C
O=c1c(Cc2ccccc2)nc2cccnc2n1-c1cccc(-n2cccc2)c1    169 to 170 °C
CCOC(=O)/C=C/C(=O)Nc1cccc(-c2cccc(-n3c(=O)c(Cc4cccnc4)nc4cccnc43)c2)c1    130 to 160 °C (dec.)
COc1ccccc1NC(=O)Nc1ccc(F)c(-n2c(=O)c(Cc3cccnc3)nc3cccnc32)c1    152 to 155 °C

Lab note: next compound to report on.
input: Dear colleague, I am looking for the recorded melting point of the following compound: O=c1c(Cc2cccnc2)nc2cccnc2n1-c1cccc(-c2cccc3ccccc23)c1
output: 162 to 165 °C

====

- systemUnderTest: U937 Phosphodiesterase IV (PDE IV)
- procedureSummary: Inhibition of U937 Phosphodiesterase IV (PDE IV)
- conditionLabel: PDE IV enzyme preparation from U937 cell homogenate; [3H]-cAMP substrate; CI-930 (PDE III inhibitor) final 10 μM; 30° C.
measureName: pIC50
One number for each entry, as −log10 of the molar value.

input: Give its pIC50 value. Item: O=C(Nc1cccc(-n2c(=O)c(Cc3ccccc3)nc3cccnc32)c1)Nc1cccc2ccccc12
output: 7.51

====

For each of the compounds below, state its melting point.

O=C(Nc1ccc(F)c(-n2c(=O)c(Cc3cccnc3)nc3cccnc32)c1)Nc1ccccc1F    146 to 149 °C
Nc1cccc(-n2c(=O)c(Cc3cccnc3)nc3cccnc32)c1    168 to 170 °C
COc1ccccc1NC(=O)Nc1cccc(-n2c(=O)c(CCC(=O)N3CCN(C)CC3)nc3cccnc32)c1    195 to 197 °C
COc1ccccc1NC(=O)Nc1cccc(-n2c(=O)c(Cc3ccc(O)cc3)nc3cccnc32)c1    220 to 221 °C
CCCOC(=O)CCc1nc2cccnc2n(-c2cccc(NC(=O)Nc3ccccc3OC)c2)c1=O    161 to 163 °C

State the recorded melting point for every item in the following list.
1. CCOc1ccc2nc(Cc3ccccc3)c(=O)n(-c3cccc(NC(C)=O)c3)c2n1
2. Nc1ccc(F)c(-n2c(=O)c(Cc3cccnc3)nc3cccnc32)c1
3. O=c1c(Cc2ccccc2)nc2cccnc2n1-c1cccc(-n2c(Br)ccc2Br)c1
4. O=c1c(Cc2cccnc2)nc2cccnc2n1-c1cccc(-c2cnc3ccccc3c2)c1
5. COc1ccccc1NC(=O)Nc1cccc(-n2c(=O)c(Cc3ccccc3)nc3cccnc32)c1

output:
["212 to 214 °C", "177 to 179 °C", "90 °C (dec.)", "237 °C", "238 to 239 °C"]

====

measureName: melting point

# example entries with known answers
CC(=O)Nc1cccc(-n2c(=O)c(CCC(=O)O)nc3cccnc32)c1    264 to 269 °C (dec.)
O=C(c1ccccc1)c1cccc(-n2c(=O)c(Cc3cccnc3)nc3cccnc32)c1    142 to 143 °C
O=C(O)c1ccccc1C(=O)Nc1cccc(-c2cccc(-n3c(=O)c(Cc4cccnc4)nc4cccnc43)c2)c1    150 °C (dec.)

Parameter requested: melting point. Apply to each item below.
1. O=c1c(Cc2cccnc2)nc2cccnc2n1-c1cccc(-c2ccc3ccccc3c2)c1
2. O=C(Nc1ccccc1)Nc1cccc(-c2cccc(-n3c(=O)c(Cc4cccnc4)nc4cccnc43)c2)c1

output:
["155 to 156 °C", "234 °C"]

====

measureName: melting point

Below are worked cases with known answers.
O=C(Nc1cccc(-c2cccc(-n3c(=O)c(Cc4cccnc4)nc4cccnc43)c2)c1)c1ccc2ccccc2c1    202 to 210 °C
O=C(Nc1cccc(-c2cccc(-n3c(=O)c(Cc4cccnc4)nc4cccnc43)c2)c1)c1cc2ccccc2s1    216 to 218 °C
O=c1c(Cc2cccnc2)nc2cccnc2n1-c1cccc(C(F)(F)F)c1    88 to 90 °C

# evaluate next
input: Can you share its melting point? I mean this molecule: N#Cc1cccn1-c1cccc(-n2c(=O)c(Cc3ccccc3)nc3cccnc32)c1
output: 165 to 166 °C

====

Please go through the items and note down their melting point.

Worked examples follow.
COc1ccc(-c2cccc(-n3c(=O)c(Cc4cccnc4)nc4cccnc43)c2)cc1OC1CCCC1    109 to 111 °C
O=C(c1ccccc1)c1cccc(-n2c(=O)c(Cc3ccccc3)nc3cccnc32)c1    154 to 155 °C
O=C(Nc1cccc(-c2cccc(-n3c(=O)c(Cc4cccnc4)nc4cccnc43)c2)c1)C(F)(F)F    138 to 144 °C

Please turn your attention to the following entry.
input: Tell me the measured melting point of COC(=O)c1cccc(-n2c(=O)c(Cc3cccnc3)nc3cccnc32)c1 , please.
output: 208 to 210 °C
